assay: Metabolic stability in human liver microsomes assessed as half life; type: ADME, Microsome
Quick rule: half-life of at least 1 h means Fulfilled, below that means Not fulfilled.

>>> category_label("CCCS(=O)(=O)NCc1ccc(Nc2ncc(C)c(-c3cnn(C(C)C)c3)n2)cc1")
"Fulfilled"
>>> category_label("C=CS(=O)(=O)NCCc1ccc(Nc2ncc(C)c(-c3cnn(C(C)C)c3)n2)cc1")
"Fulfilled"
>>> category_label("Cc1cnc(Nc2ccc(CCNC(=O)/C=C/CN(C)C)cc2)nc1-c1cnn(C(C)C)c1")
"Not fulfilled"
>>> category_label("C=CS(=O)(=O)NCc1ccc(Nc2ncc(C)c(-c3cnn(C(C)C)c3)n2)cc1")
"Fulfilled"
>>> category_label("Cc1cnc(Nc2ccc(CNS(=O)(=O)C3CC3)cc2)nc1-c1cnn(C(C)C)c1")
"Fulfilled"
>>> category_label("CCCCS(=O)(=O)NCc1ccc(Nc2ncc(C)c(-c3cnn(C(C)C)c3)n2)cc1")
"Fulfilled"
>>> category_label("Cc1cnc(Nc2ccc(CCNC(=O)CCCl)cc2)nc1-c1cnn(C(C)C)c1")
"Not fulfilled"
>>> category_label("Cc1cnc(Nc2ccc(CNC(=O)/C=C/C(=O)c3ccccc3)cc2)nc1-c1cnn(C(C)C)c1")
"Not fulfilled"
